Data origin, for the record: patent US12590069B2

assay: Phase I multiple ascending oral dose pharmacokinetics in healthy subjects (plasma, LC-MS/MS); type: in vivo, human; conditions: human, plasma, po, 350 mg, 350 mg QD oral, Day 14 (N = 9), healthy subjects, plasma; geometric mean
Where a name gives a salt, the structure may show the parent alone.

# compound, unit.string, Cmax
measured = [
    ("N#Cc1cccc([C@@H](NCC2CC2)c2ccc(F)c(NC(=O)c3cc(C(F)(F)F)nn3-c3cccc(CN)c3)c2)c1 [Compound I•2(HCl)]", "ng/mL", 363),
]

* * *

assay: Phase I multiple ascending oral dose pharmacokinetics in healthy subjects (plasma, LC-MS/MS); type: in vivo, human; conditions: human, plasma, po, 350 mg, 350 mg QD oral, Day 14 (N = 9), healthy subjects; geometric mean
Structures can show the parent of a compound that is named as a salt.
observable: AUC

# molecule, result
data = [
    ("N#Cc1cccc([C@@H](NCC2CC2)c2ccc(F)c(NC(=O)c3cc(C(F)(F)F)nn3-c3cccc(CN)c3)c2)c1 [Compound I•2(HCl)]", "5720 ng·h/mL"),
]

* * *

assay: Phase I multiple ascending oral dose pharmacokinetics in healthy subjects (plasma, LC-MS/MS); assay type: in vivo, human; details: human, plasma, po, 125 mg, 125 mg QD oral, Day 7 (N = 10), healthy subjects; median
Where a name gives a salt, the structure may show the parent alone.
observable: Tmax (h)

# compound, result.number
rows = [
    ("N#Cc1cccc([C@@H](NCC2CC2)c2ccc(F)c(NC(=O)c3cc(C(F)(F)F)nn3-c3cccc(CN)c3)c2)c1 [Compound I•2(HCl)]", 5),
]

* * *

assay: Phase I multiple ascending oral dose pharmacokinetics in healthy subjects (plasma, LC-MS/MS); assay type: in vivo, human; conditions: human, plasma, po, 350 mg, third dose column, 350 mg QD, Day 7 (N = 9), oral, healthy subjects; geometric mean
Where a name gives a salt, the structure may show the parent alone.

# compound, unit.string, AUC
rows = [
    ("N#Cc1cccc([C@@H](NCC2CC2)c2ccc(F)c(NC(=O)c3cc(C(F)(F)F)nn3-c3cccc(CN)c3)c2)c1 [Compound I•2(HCl)]", "ng·h/mL", 8230),
]

* * *

experiment: Phase I multiple ascending oral dose pharmacokinetics in healthy subjects (plasma, LC-MS/MS); format: in vivo, human; details: human, plasma, po, 125 mg, 125 mg QD oral, Day 7 (N = 10), healthy subjects; geometric mean
Where a name gives a salt, the structure may show the parent alone.
observable: AUC (ng·h/mL)

# compound, unit.string, result.number
records = [
    ("N#Cc1cccc([C@@H](NCC2CC2)c2ccc(F)c(NC(=O)c3cc(C(F)(F)F)nn3-c3cccc(CN)c3)c2)c1 [Compound I•2(HCl)]", "ng·h/mL", 1600),
]

* * *

assay: Phase I multiple ascending oral dose pharmacokinetics in healthy subjects (plasma, LC-MS/MS); assay type: in vivo, human; conditions: human, plasma, po, 500 mg, second dose column, 500 mg QD, Day 7 (N = 9), oral, healthy subjects; geometric mean
Structures can show the parent of a compound that is named as a salt.
observable: AUC (ng·h/mL)

# molecule, observable, result.number
records = [
    ("N#Cc1cccc([C@@H](NCC2CC2)c2ccc(F)c(NC(=O)c3cc(C(F)(F)F)nn3-c3cccc(CN)c3)c2)c1 [Compound I•2(HCl)]", "AUC", 3710),
]
